Mean Sleeping Time, Noludar for assorted compounds
- Tested on: male mice
- measurement_description: extension of sleeping time of depressant drugs by synergists
- Type: in vivo, male mice (Swiss albino white)
- condition_set: Noludar 110 mg/kg; synergist 110 mg/kg one hour prior
Hi! Could you send only the number? It should be in min, unit omitted.

Take a look at these entries with their results.
structure_smiles_string=C#CCOCc1ccccc1[N+](=O)[O-] measured_property="Mean Sleeping Time, Noludar" value_measured=44
structure_smiles_string=C#CCOCc1c(Cl)cccc1[N+](=O)[O-] measured_property="Mean Sleeping Time, Noludar" value_measured=75
structure_smiles_string=C#CCOCc1ccc([N+](=O)[O-])c(Cl)c1 measured_property="Mean Sleeping Time, Noludar" value_measured=52
structure_smiles_string=C#CCOCc1c(Cl)cccc1Cl measured_property="Mean Sleeping Time, Noludar" value_measured=68
structure_smiles_string=C#CCOCc1cccc([N+](=O)[O-])c1Cl measured_property="Mean Sleeping Time, Noludar" value_measured=56

Alright, here's another compound for you.
Data request, read-out Mean Sleeping Time, Noludar, for `C#CCOCc1cccc(Cl)c1[N+](=O)[O-]`
56

###

- Tested on: IN/WHO strain house flies
- measurement_description: topical application, percent kill after 24 hours, susceptible IN/WHO strain
- Type: in vivo, female)
- condition_set: GS 13005 0.10 + synergist 0.25 μg/fly
measured_property: percent kill after 24 hours, with GS 13005 (%)
Hi! Could you send only the number? It should be in %, unit omitted.

Data request, read-out percent kill after 24 hours, with GS 13005, for `C#CCOCc1ccc([N+](=O)[O-])cc1`
67

Data request, read-out percent kill after 24 hours, with GS 13005, for `C#CCON=Cc1cccc([N+](=O)[O-])c1`
27

Data request, read-out percent kill after 24 hours, with GS 13005, for C#CCOC(c1ccc(Cl)cc1)C(C)[N+](=O)[O-] (centres unmarked)
75

Data request, read-out percent kill after 24 hours, with GS 13005, for `C#CCOCc1ccccc1[N+](=O)[O-]`
85

Data request, read-out percent kill after 24 hours, with GS 13005, for `C#CCOCc1cccc2ccccc12`
65

###

number of mice dead, with Dimetilan for assorted compounds
- Tested on: Swiss albino, white male mice
- measurement_description: acute toxicity and synergism of acute toxicity in mice
- Format: in vivo
- condition_set: Dimetilan 8 + synergist 80 mg/kg i.p.; 48 hours; eight mice
Output: the number by itself.

structure_smiles_string=C#CCON=Cc1cccc2ccccc12 value_measured=0
structure_smiles_string=C#CCOCc1cccc([N+](=O)[O-])c1Cl value_measured=0
structure_smiles_string=C#CCON=Cc1cccc([N+](=O)[O-])c1 value_measured=1
structure_smiles_string=C#CCOCc1ccc(Cl)cc1[N+](=O)[O-] value_measured=0

Data request, read-out number of mice dead, with Dimetilan, for `C#CCOCc1cccc(Cl)c1[N+](=O)[O-]`
0

###

- System: IN/WHO strain house flies
- measurement_description: topical application, percent kill after 24 hours, susceptible IN/WHO strain
- Assay type: in vivo, female)
- condition_set: GS 13005 0.05 + synergist 0.25 μg/fly
measured_property: percent kill after 24 hours, with GS 13005 (%)
Hi! Could you send only the number? It should be in %, unit omitted.

Take a look at these entries with their results.
compound=C#CCOCc1ccccc1[N+](=O)[O-] test_target="IN/WHO strain house flies" value_measured=10
compound=C#CCOCc1ccc([N+](=O)[O-])cc1 test_target="IN/WHO strain house flies" value_measured=25

Data request, read-out percent kill after 24 hours, with GS 13005, for C#CCOC(c1ccc(Cl)cc1)C(C)[N+](=O)[O-] (stereo not shown)
9

Data request, read-out percent kill after 24 hours, with GS 13005, for `C#CCON=Cc1cccc([N+](=O)[O-])c1`
2

###

- Tested on: Rutgers A strain house flies
- measurement_description: topical application, percent kill after 24 hours, resistant Rutgers A strain
- Format: in vivo, female)
- condition_set: insecticide 0, synergist 5.0 μg/fly
measured_property: percent kill after 24 hours, synergist alone (%)
Hi! Could you send only the number? It should be in %, unit omitted.

Take a look at these entries with their results.
molecule="C#CCOCc1cccc(Cl)c1[N+](=O)[O-] [II-I]" test_target="Rutgers A strain house flies" measurement_units=% value_measured=3
molecule="C#CCON=C(C)c1ccc2ccccc2c1 [I-F]" test_target="Rutgers A strain house flies" measurement_units=% value_measured=0

Data request, read-out percent kill after 24 hours, synergist alone, for C#CCOCc1ccc(Cl)cc1[N+](=O)[O-] [II-J]
0

Data request, read-out percent kill after 24 hours, synergist alone, for C#CCOCc1cccc2ccccc12 [II-R, α-napthylmethyl 2-propynyl ether]
0

Data request, read-out percent kill after 24 hours, synergist alone, for C#CCOCc1ccc(Cl)c([N+](=O)[O-])c1 [II-M]
0

Data request, read-out percent kill after 24 hours, synergist alone, for C#CCOCc1c(Cl)cccc1[N+](=O)[O-] [II-K]
0

###

number of mice dead, with Dimetilan for assorted compounds
- System: Swiss albino, white male mice
- measurement_description: acute toxicity and synergism of acute toxicity in mice
- Type: in vivo
- condition_set: Dimetilan 8 + synergist 240 mg/kg i.p.; 48 hours; eight mice
Output: the number by itself.

Take a look at these entries with their results.
compound=C#CCON=Cc1cccc2ccccc12 test_target="Swiss albino, white male mice" value_measured=3
compound=C#CCOCc1ccc([N+](=O)[O-])c(Cl)c1 test_target="Swiss albino, white male mice" value_measured=2
compound=C#CCOCc1c(Cl)cccc1[N+](=O)[O-] test_target="Swiss albino, white male mice" value_measured=6

Alright, here's another compound for you.
Data request, read-out number of mice dead, with Dimetilan, for C#CCOC(c1ccc(Cl)cc1)C(C)[N+](=O)[O-] (stereo not shown)
7

###

- Test system: male mice
- measurement_description: extension of sleeping time of depressant drugs by synergists
- Assay type: in vivo, male mice (Swiss albino white)
- condition_set: Secobarbital 37 mg/kg; synergist 74 mg/kg; treated/control
measured_property: Relative Sleeping Time, Secobarbital
Output: the number by itself.

molecule=C#CCOCc1ccc(Cl)c([N+](=O)[O-])c1 measured_property="Relative Sleeping Time, Secobarbital" value_measured=1.0
molecule=C#CCON=Cc1cccc([N+](=O)[O-])c1 measured_property="Relative Sleeping Time, Secobarbital" value_measured=1.5
molecule="CCOCCOCCOC(C)Oc1ccc2c(c1)OCO2 (stereo not drawn) [Sesoxane, reference compound]" measured_property="Relative Sleeping Time, Secobarbital" value_measured=6.1

Data request, read-out Relative Sleeping Time, Secobarbital, for `C#CCON=C(C)c1ccc(Cl)cc1`
1.9

Data request, read-out Relative Sleeping Time, Secobarbital, for `C#CCON=Cc1ccc(N(C)C)cc1`
1.1

Data request, read-out Relative Sleeping Time, Secobarbital, for `C#CCOCc1ccc([N+](=O)[O-])cc1Cl`
1.0

Data request, read-out Relative Sleeping Time, Secobarbital, for `C#CCOCc1cccc([N+](=O)[O-])c1Cl`
1.0

Data request, read-out Relative Sleeping Time, Secobarbital, for `C#CCOCc1ccc([N+](=O)[O-])cc1`
1.1

Data request, read-out Relative Sleeping Time, Secobarbital, for `C#CCON=Cc1cccc2ccccc12`
1.1

Data request, read-out Relative Sleeping Time, Secobarbital, for `C#CCOCc1c(Cl)cccc1[N+](=O)[O-]`
1.5

Data request, read-out Relative Sleeping Time, Secobarbital, for `C#CCOCc1cccc(Cl)c1[N+](=O)[O-]`
1.2

Data request, read-out Relative Sleeping Time, Secobarbital, for `C#CCON=C(C)c1ccc2ccccc2c1`
1.1

Data request, read-out Relative Sleeping Time, Secobarbital, for C#CCOC(c1ccc(Cl)cc1)C(C)[N+](=O)[O-] (stereo not drawn)
4.7

Data request, read-out Relative Sleeping Time, Secobarbital, for `C#CCOCc1c(Cl)cccc1Cl`
1.4

Data request, read-out Relative Sleeping Time, Secobarbital, for `C#CCOCc1cccc2ccccc12`
1.2

Data request, read-out Relative Sleeping Time, Secobarbital, for C#CCOC(c1ccc(Cl)cc1Cl)C(C)[N+](=O)[O-] (stereo not drawn)
2.3

Data request, read-out Relative Sleeping Time, Secobarbital, for `C#CCOCc1ccc(Cl)cc1[N+](=O)[O-]`
1.0

Data request, read-out Relative Sleeping Time, Secobarbital, for `C#CCON=Cc1ccc(Cl)cc1Cl`
1.0

###

- Test system: IN/WHO strain house flies
- measurement_description: topical application, percent kill after 24 hours, susceptible IN/WHO strain
- Type: in vivo, female)
- condition_set: GS 13005 0.10 + synergist 0.50 μg/fly
percent kill after 24 hours, with GS 13005 for assorted compounds
Hi! Could you send only the number? It should be in %, unit omitted.

Take a look at these entries with their results.
compound=C#CCOCc1ccc(Cl)cc1[N+](=O)[O-] measurement_units=% value_measured=99
compound=C#CCOCc1c(Cl)cccc1Cl measurement_units=% value_measured=100

Data request, read-out percent kill after 24 hours, with GS 13005, for `C#CCOCc1ccc([N+](=O)[O-])cc1`
90

Data request, read-out percent kill after 24 hours, with GS 13005, for `C#CCOCc1cccc([N+](=O)[O-])c1Cl`
97

Data request, read-out percent kill after 24 hours, with GS 13005, for `C#CCOCc1ccc([N+](=O)[O-])cc1Cl`
84

Cited source for all entries: patent US3954793A
